Biological target: human arginase I (ARG I) (Homo sapiens)
Sequence (P05089 1-322): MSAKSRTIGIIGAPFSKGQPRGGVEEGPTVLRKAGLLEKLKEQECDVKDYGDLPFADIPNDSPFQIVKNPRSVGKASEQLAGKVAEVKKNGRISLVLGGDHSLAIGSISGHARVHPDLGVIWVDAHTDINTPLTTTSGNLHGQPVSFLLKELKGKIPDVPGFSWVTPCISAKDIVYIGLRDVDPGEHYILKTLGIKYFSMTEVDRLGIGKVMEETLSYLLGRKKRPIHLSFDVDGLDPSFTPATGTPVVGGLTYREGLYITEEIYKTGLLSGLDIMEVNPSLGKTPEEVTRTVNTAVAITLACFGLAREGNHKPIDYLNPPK
Assay: Inhibition of arginase I, spectrophotometric urea assay at 530 nm
Type: biochemical
Settings: Formula I compounds, Table 2; read-out: Potency (ARG I)
Counter-ions that a name gives are not always drawn.
# IC50 annotations
observable: IC50

1) C[C@H](CO)NCCC(N)(CCCCB(O)O)C(=O)O (some centres unmarked): 2000 to 5000 nM
2) CCN(CCC(N)(CCCCB(O)O)C(=O)O)Cc1ccccc1 (racemic) [compound 19, dihydrochloride]: 2000 to 5000 nM
3) COc1ccc(OCCC(N)(CCCCB(O)O)C(=O)O)cc1 (centres unmarked) [compound 93, hydrochloride]: > 5000 nM
4) CNC(CCCCB(O)O)(CCN1CCCCC1)C(=O)O (centres unmarked): 0.1 to 250 nM
5) CC(C)n1cncc1CC(N)(CCCCB(O)O)C(=O)O (centres unmarked) [compound 107, dihydrochloride]: > 5000 nM
6) NC(CCCCB(O)O)(CC1CN(Cc2ccc(Cl)c(Cl)c2)C1)C(=O)O (centres unmarked) [compound 117, dihydrochloride]: 251 to 1000 nM
7) NC(CCCCB(O)O)(CNC(c1ccccc1)C(O)c1ccccc1)C(=O)O (stereo in doubt) [compound 89, dihydrochloride]: > 5000 nM
8) NC(CCCCB(O)O)(CCN1CCC(Cc2ccc(C(F)(F)F)cc2)CC1)C(=O)O (centres unmarked) [compound 126, dihydrochloride]: 251 to 1000 nM

---

Target: human arginase I (ARG I) (Homo sapiens, UniProt P05089)
Assay: Inhibition of arginase I, spectrophotometric urea assay at 530 nm
Type: biochemical
Settings: Formula I compounds, Table 2; read-out: Potency (ARG I)
pIC50: −log10 of the molar value. Where a name gives a salt, the structure may show the parent alone.
# pIC50 annotations
observable: pIC50

1) NC(CCCCB(O)O)(CCC1Cc2ccccc2CN1)C(=O)O (stereo not drawn) [compound 131, dihydrochloride]: 6.00 to 6.60
2) CNC(CCCCB(O)O)(CC[C@@H]1CCCN1)C(=O)O (stereo partly drawn) [compound 144, dihydrochloride]: 6.60 to 10.00
3) NC(CCCCB(O)O)(CNC1CCOCC1)C(=O)O (stereo not drawn) [compound 87, dihydrochloride]: 5.70 to 6.00
4) NC(CCCCB(O)O)(CCN1CCc2sccc2C1)C(=O)O (stereo not drawn) [compound 29, dihydrochloride]: 6.00 to 6.60
5) NC(CCCCB(O)O)(C(=O)O)C(O)C1CCCNC1 (stereo not drawn) [compound 110, dihydrochloride]: 5.70 to 6.00
6) COCCN1CCN(CCC(N)(CCCCB(O)O)C(=O)O)CC1 (stereo not drawn) [compound 77, trihydrochloride]: 5.30 to 5.70
7) NC(CCCCB(O)O)(CCN1CCc2ccccc2C1)C(=O)O (stereo not drawn) [compound 36, dihydrochloride]: 6.00 to 6.60
8) CCCCNCC(N)(CCCCB(O)O)C(=O)O (stereo not drawn) [compound 86, dihydrochloride]: 5.30 to 5.70
9) CNC(CCCCB(O)O)(CCCNCc1ccc(Cl)cc1)C(=O)O (stereo not drawn) [compound 139, dihydrochloride]: 6.60 to 10.00
10) NC(CCCCB(O)O)(CCN1CCC[C@@H](C(=O)O)C1)C(=O)O (stereo partly drawn) [compound 53]: 5.30 to 5.70
11) NC(CCCCB(O)O)(C(=O)O)C(O)C1CNC1 (stereo not drawn) [compound 113, dihydrochloride]: 6.60 to 10.00
12) NCCN(CCC(N)(CCCCB(O)O)C(=O)O)Cc1ccccc1 (stereo not drawn) [compound 73, trihydrochloride]: 6.60 to 10.00
13) NC(CCCCB(O)O)(CCN(CCO)Cc1ccccc1)C(=O)O (stereo not drawn) [compound 20, dihydrochloride]: 5.30 to 5.70
14) CC(C)C(=O)NCCC(N)(CCCCB(O)O)C(=O)O (stereo not drawn) [compound 120, hydrochloride]: 5.70 to 6.00
15) COc1ccc(C2=CCN(CCC(N)(CCCCB(O)O)C(=O)O)CC2)cc1 (stereo not drawn) [compound 31, dihydrochloride]: 6.00 to 6.60
16) CC(C)NCCC(N)(CCCCB(O)O)C(=O)O (stereo not drawn) [compound 55, dihydrochloride]: 6.60 to 10.00
17) NC(CCCCB(O)O)(CCN1CCC1)C(=O)O (stereo not drawn) [compound 75, dihydrochloride]: 6.00 to 6.60
18) NC(CCCCB(O)O)(CCN1CCC(F)CC1)C(=O)O (stereo not drawn) [compound 47, dihydrochloride]: 5.70 to 6.00
19) CC(C)Oc1ccc(CN(C)CCC(N)(CCCCB(O)O)C(=O)O)cc1 (stereo not drawn) [compound 74, dihydrochloride]: 5.30 to 5.70
20) COc1ccc(CN(C)CCC(N)(CCCCB(O)O)C(=O)O)cc1 (stereo not drawn) [compound 27, dihydrochloride]: 5.70 to 6.00
21) NC(CCCCB(O)O)(CC1CNC1)C(=O)O (stereo not drawn) [compound 123, dihydrochloride]: 5.30 to 5.70
22) NC(CCCCB(O)O)(CCN1CCC[C@H]1CN1CCCC1)C(=O)O (stereo partly drawn) [compound 40, trihydrochloride]: 5.70 to 6.00
23) NC(CCCCB(O)O)(CCN1CCC(O)(Cc2ccccc2)CC1)C(=O)O (stereo not drawn) [compound 34, dihydrochloride]: 6.00 to 6.60
24) NC(CCCO)(CCCCB(O)O)C(=O)O (stereo not drawn) [compound 101, hydrochloride]: 5.30 to 5.70
25) NC(CCCCB(O)O)(CNCc1ccccc1)C(=O)O (stereo not drawn) [compound 84]: 5.30 to 5.70
26) CN(C)C(=O)[C@@H]1CCCN1CCC(N)(CCCCB(O)O)C(=O)O (stereo partly drawn) [compound 54, dihydrochloride]: < 5.30
27) CN(CCC(N)(CCCCB(O)O)C(=O)O)Cc1ccc(F)c(C(F)(F)F)c1 (stereo not drawn) [compound 48, dihydrochloride]: 5.30 to 5.70
28) NC(CCCCB(O)O)(CCN1CCC(F)(F)C1)C(=O)O (stereo not drawn) [compound 44, dihydrochloride]: < 5.30
29) NC(CCCCB(O)O)(CCCN1CCCCC1)C(=O)O (stereo not drawn) [compound 147, dihydrochloride]: 6.60 to 10.00
30) COC[C@@H]1CCCN1CC[C@](N)(CCCCB(O)O)C(=O)O [compound 2, dihydrochloride]: 6.00 to 6.60
31) CCCNCC(N)(CCCCB(O)O)C(=O)O (stereo not drawn) [compound 83, dihydrochloride]: 5.30 to 5.70
32) NC(CCCCB(O)O)(CCNCCCc1ccc(F)c(F)c1)C(=O)O (stereo not drawn) [compound 63, dihydrochloride]: 6.60 to 10.00
33) NC(CCCCB(O)O)(CCOc1cccc(C(F)(F)F)c1)C(=O)O (stereo not drawn) [compound 95, hydrochloride]: 5.30 to 5.70

---

# pIC50 annotations
Molecular target: arginase II (ARG II) (Homo sapiens)
Sequence (P78540 23-354): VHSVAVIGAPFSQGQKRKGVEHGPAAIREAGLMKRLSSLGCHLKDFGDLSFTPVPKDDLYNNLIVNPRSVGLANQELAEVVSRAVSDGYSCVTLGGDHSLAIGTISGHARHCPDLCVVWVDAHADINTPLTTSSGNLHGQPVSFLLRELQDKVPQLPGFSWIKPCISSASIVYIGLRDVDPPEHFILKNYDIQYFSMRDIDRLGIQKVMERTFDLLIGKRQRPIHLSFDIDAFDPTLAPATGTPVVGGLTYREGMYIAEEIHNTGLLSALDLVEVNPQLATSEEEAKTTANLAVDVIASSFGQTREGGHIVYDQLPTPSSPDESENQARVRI
Experiment: Inhibition of arginase II, spectrophotometric urea assay at 530 nm
Type: biochemical
Conditions: Formula II compounds, Table 2-A; read-out: Potency (ARG)
pIC50: −log10 of the molar value. Counter-ions that a name gives are not always drawn.
observable: pIC50

1. Cc1ccc(CN2CC[C@@H](C(N)(CCCCB(O)O)C(=O)O)C2)cc1 (stereo partly shown) [Example 39-A, dihydrochloride]: 6.00 to 6.60
2. NC(CCCCB(O)O)(C(=O)O)C1CCCNCC1 (stereo not shown) [Example 72-A, dihydrochloride]: 6.00 to 6.60
3. NC(CCCCB(O)O)(C(=O)O)[C@H]1CCN(Cc2ccccc2)C1 (stereo partly shown) [Example 68-A, dihydrochloride]: 6.00 to 6.60
4. NC(CCCCB(O)O)(C(=O)O)C1CCNCC1 (stereo not shown) [Example 88-A, dihydrochloride]: 6.00 to 6.60
5. NC(CCCCB(O)O)(C(=O)O)C1CCN(C(=O)Nc2ccc(Cl)cc2)C1 (stereo not shown) [36-A, hydrochloride]: 5.30 to 5.70
6. NC(CCCCB(O)O)(C(=O)O)[C@@H]1CCN(S(=O)(=O)c2ccccc2[N+](=O)[O-])C1 (stereo partly shown): 6.00 to 6.60
7. NC(CCCCB(O)O)(C(=O)O)C1CCN(Cc2ccc(Cl)c(Cl)c2)CC1 (stereo not shown) [Example 95-A, dihydrochloride]: 6.00 to 6.60
8. NC(CCCCB(O)O)(C(=O)O)C1CCN(Cc2csc3ccccc23)CC1 (stereo not shown) [Example 104-A, dihydrochloride]: 6.60 to 10.00
9. NC1CCC(C(N)(CCCCB(O)O)C(=O)O)CC1 (stereo not shown) [20-A, dihydrochloride]: 6.00 to 6.60
10. COc1cc(F)c(CN2CCC(C(N)(CCCCB(O)O)C(=O)O)CC2)cc1OC (stereo not shown) [Example 96-A, dihydrochloride]: 6.00 to 6.60
11. NC(CCCCB(O)O)(C(=O)O)C1CCN(Cc2cccc3c2OCCC3)CC1 (stereo not shown) [Example 60-A, dihydrochloride]: 6.60 to 10.00
12. NC(CCCCB(O)O)(C(=O)O)[C@H]1C[C@@H](NCc2cc3c(cc2Cl)OCO3)C1 (stereo partly shown) [Example 78-A, dihydrochloride]: 6.60 to 10.00
13. Cc1cc(C(F)(F)F)cc(N2CCC(C(N)(CCCCB(O)O)C(=O)O)CC2)n1 (stereo not shown): 5.30 to 5.70
14. NC(CCCCB(O)O)(C(=O)O)C1CCN(Cc2cccc(C(=O)O)c2)CC1 (stereo not shown) [Example 105-A, dihydrochloride]: 6.00 to 6.60
15. NC(CCCCB(O)O)(C(=O)O)C1CCN(c2ccc(Cl)cn2)CC1 (stereo not shown) [Example 85-A, hydrochloride]: 6.00 to 6.60
16. NC(CCCCB(O)O)(C(=O)O)C1CCN(Cc2ccccc2-c2cccnc2)CC1 (stereo not shown) [Example 57-A, dihydrochloride]: 6.00 to 6.60
17. NC(CCCCB(O)O)(C(=O)O)[C@@H]1CCN(Cc2ccc(F)cc2)C1 (mixture of isomers): 5.70 to 6.00
18. NC(CCCCB(O)O)(C(=O)O)C1CCN(c2cc(C(F)(F)F)c3ccccc3n2)CC1 (stereo not shown): 5.70 to 6.00
19. NC(CCCCB(O)O)(C(=O)O)[C@H]1C[C@@H](NCc2ccc(-c3ccccc3)cc2)C1 (stereo partly shown) [Example 77-A, dihydrochloride]: 6.60 to 10.00
20. Cc1cc2c(F)ccc(C)c2nc1N1CCC(C(N)(CCCCB(O)O)C(=O)O)CC1 (stereo not shown) [5-A, dihydrochloride]: 6.00 to 6.60
21. NC(CCCCB(O)O)(C(=O)O)[C@@H]1CCN(Cc2ccc(C(F)(F)F)cc2)C1 (mixture of isomers) [38-A, dihydrochloride]: 6.00 to 6.60
22. NC(CCCCB(O)O)(C(=O)O)C1CCN(CCCc2cc(F)cc(Cl)c2)CC1 (stereo not shown): 6.00 to 6.60
23. NC(CCCCB(O)O)(C(=O)O)C1CCN(CCCc2ccc(F)cc2F)CC1 (stereo not shown) [Example 52-A, dihydrochloride]: 6.60 to 10.00
24. NC(CCCCB(O)O)(C(=O)O)C1CCN(C(=O)NCc2ccc(Cl)cc2)CC1 (stereo not shown) [31-A, hydrochloride]: 5.30 to 5.70
25. NC(CCCCB(O)O)(C(=O)O)C1CCN(C(=S)Nc2cccc3ccccc23)CC1 (stereo not shown): 5.70 to 6.00
26. NC(CCCCB(O)O)(C(=O)O)C1CCN(C(=O)Cc2ccc(F)cc2)CC1 (stereo not shown) [28-A, hydrochloride]: 5.30 to 5.70
27. NC(CCCCB(O)O)(C(=O)O)C1CCN(CCCc2ccccc2)CC1 (stereo not shown) [Example 102-A, dihydrochloride]: 6.60 to 10.00
28. NC(CCCCB(O)O)(C(=O)O)C1CCN(Cc2ccc(Cl)cc2)CC1 (stereo not shown) [Example 89-A, dihydrochloride]: 6.60 to 10.00
29. NC(CCCCB(O)O)(C(=O)O)C1CCN(c2nccc(C(F)(F)F)n2)CC1 (stereo not shown) [2-A, hydrochloride]: 5.30 to 5.70
30. Cc1ccc(NC(=S)N2CCC(C(N)(CCCCB(O)O)C(=O)O)CC2)cc1Cl (stereo not shown): 5.70 to 6.00
31. Cc1cc(CN2CCC(C(N)(CCCCB(O)O)C(=O)O)CC2)n(C)n1 (stereo not shown) [Example 62-A, dihydrochloride]: 6.00 to 6.60
